B1: Azoarcus group I ribozyme (parent)
chain: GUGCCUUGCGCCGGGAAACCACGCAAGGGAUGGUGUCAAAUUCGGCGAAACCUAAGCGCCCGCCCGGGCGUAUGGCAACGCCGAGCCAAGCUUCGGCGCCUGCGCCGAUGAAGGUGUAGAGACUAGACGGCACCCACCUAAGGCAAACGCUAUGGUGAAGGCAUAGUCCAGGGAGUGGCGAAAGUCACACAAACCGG

Variants of: B1
Experiment: reverse-splicing fitness (ratio to wild type); higher = more active; in vitro selection; Mg2+ level not given

Variant Description	reverse-splicing fitness
C82A A111C A120G A145C C150A C169A U176A	0.01
A111G A120U A145G C169U U176A	0.0227
A120U C150A C169U U176C	0.0195
C82G A111G A145C C150A U176C	0.0173
C82U A111U A120C A145G C150A C169A U176G	0.0059
C82U A111G A120U A145U C150G	0.00775
C82G A111C A120C C150G C169U	0.00996
C82A A145C C150A C169U	0.00913
C82A A111U	0.299
A120C U176A	0.663
C82G A111G A120C A145U	0.0901
C82G A111C A120U C150A C169U	0.00505
A111U A120U A145G C150A C169U U176G	0.00312
A111G A120C A145C C150A U176A	0.0376
C82U A111U A145C C150A C169A U176G	0.00585
C82A A120G A145C C150U C169A	0.00915
C82U A111C A120C A145U U176C	0.0181
C82U A120C A145G C150G C169A	0.00952
C82U A111G A145G C169A U176G	0.00491
C82A C169A U176G	0.00441
C82A A111G A120U A145C C169G U176G	0.00175
C82G A111C A120G A145U C150U C169U	0.00896
